All values here come from patent US20250313631A1.

Task for the reader: assign each of the following binders its reported EC50.
Biological target: T1, recombinant mouse VISTA (His-tagged) (mouse, UniProt Q9D659 33-191)
T1 construct: also called murine VISTA; mVISTA
T1 sequence (looked up): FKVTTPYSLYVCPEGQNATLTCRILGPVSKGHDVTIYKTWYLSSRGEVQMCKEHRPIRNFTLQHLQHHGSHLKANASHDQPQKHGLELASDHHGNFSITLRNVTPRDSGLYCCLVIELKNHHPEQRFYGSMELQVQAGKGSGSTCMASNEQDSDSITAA
Assay: ELISA, plate coated with mouse VISTA
Record the value in nM, omitting the unit from your answer.

Query: I am curious: what EC50 value has been reported for anti-VISTA clone V4-C28 IgG1 (antibody, V domains shown) VH: QVQLQESGPGLVKPSDTLSLTCTVSGYSITSDYTWNWIRQTPGKGLEWIGHITYSGSVSYNPSLRSRVTISRDTSKNQFSLKLSSVTAADTATYSCARALYYPWYFDVWGTGTTVTVSS VL: EIVLTQSPATLSLSPGERATLSCRASSSVGYIHWYQQKPGQAPRPLIYATSYRATGIPARFSGSGSGTDNTLTISSLEPEDSAVYYCQQWSSYPPITFGGGTKLEVKR ?
Response: 0.0365

Query: Subsequent entry: anti-VISTA clone V4-C24 IgG1 (antibody, V domains shown) VH: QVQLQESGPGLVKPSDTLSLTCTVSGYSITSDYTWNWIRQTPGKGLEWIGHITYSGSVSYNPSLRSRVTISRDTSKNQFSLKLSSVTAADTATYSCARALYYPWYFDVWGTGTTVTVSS VL: EIVLTQSPATLSLSPGERATLSCRASSSVGYIHWYQQKPGQAPRPLIYTTSYRATGIPARFSGSGSGTDNTLTISSLEPEDSAVYYCQQWSSYPPITFGGGTKLEVKR
Response: 0.0304

Query: // query: anti-VISTA clone V4-C27 IgG1 (antibody, V domains shown) VH: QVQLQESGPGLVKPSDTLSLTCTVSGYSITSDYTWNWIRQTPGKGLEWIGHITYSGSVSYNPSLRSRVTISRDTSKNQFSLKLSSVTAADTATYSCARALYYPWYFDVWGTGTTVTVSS VL: EIVLTQSPATLSLSPGERATLSCRASSSVGYIHWYQQKPGQAPRPLIYATYNRATGIPARFSGSGSGTDNTLTISSLEPEDSAVYYCQQWSSYPPITFGGGTKLEVKR
Response: 0.0374

Query: Let us now turn to anti-VISTA clone V4-C30 IgG1 (antibody, V domains shown) VH: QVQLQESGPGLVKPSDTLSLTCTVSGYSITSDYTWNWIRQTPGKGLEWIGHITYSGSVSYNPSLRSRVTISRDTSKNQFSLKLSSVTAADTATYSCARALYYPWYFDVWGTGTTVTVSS VL: EIVLTQSPATLSLSPGERATLSCRASSSVGYIHWYQQKPGQAPRPLIYATYYRATGIPARFSGSGSGTDNTLTISSLEPEDSAVYYCQQWSSYPPITFGGGTKLEVKR
Response: 0.0326
